Known TGI of a selection of compounds
Tested on: OVCAR-5 ovarian
Experiment: NCI tumour cell line growth inhibition, 48 h

C=C(C)[C@@H](C(=O)OC)N1C(=O)c2ccccc2C1=O = > 100 µM
CO/N=C(\C(=O)Nc1cncs1)c1csc(NC(c2ccccc2)(c2ccccc2)c2ccccc2)n1 = > 10 µM
CCCN=C(NC(=O)c1ccc(Cl)cc1)SC = > 100 µM

Record Clc1cccc(Cl)c1C1SCC2=Nc3ccccc3CN21 (stereo not given) : what is its TGI with OVCAR-5 ovarian?
> 100 µM

Also need CSc1ccc(C2C(Cl)C(=O)N2NC(=O)c2c(Cl)c(Cl)c(Cl)c(Cl)c2-c2nc3ccccc3[nH]2)cc1 (stereo not given) , thanks.
53.4 µM

Also need `Cc1[nH]c(N=Nc2ccccc2)nc1N=Nc1ccccc1` , thanks.
> 82.2 µM

Also need COC(=O)CCC(=O)NC1c2cccc3cccc(c23)Cn2c(=O)n(C)c(=O)n21 (stereo not given) , thanks.
> 100 µM

Also need `COC(=O)C1=C(c2ccc3c(c2)OCO3)O[C@H](c2ccc3c(c2)OCO3)[C@H]1COC(C)=O` , thanks.
> 100 µM

Also need `CC(C)=CC(=O)N1CCN(C(=O)C=C(C)C)CC1` , thanks.
> 100 µM

Also need `O=c1c2ccccc2nnn1-c1n[nH]c2ccccc12` , thanks.
> 100 µM
